test system: MILI (PIWIL2) piRISC loaded with piRNA #1 (26 nt); experiment: pre-steady-state target cleavage rate (min^-1); guide: piRNA #1 5'p-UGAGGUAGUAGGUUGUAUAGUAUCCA; higher = faster piRNA-guided slicing of the target; conditions: auxiliary factor: 500 nM mouse GTSF1;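 further: 1 nM active piRISC with 0.1 nM target library at 33 °C single turnover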
Items are presented alongside their recorded pre-steady-state target cleavage rate.
The answer should be a number; do not append a unit.

SEQUENCE_RECORD	ENDPOINT_RESULT
GGAGACCUAUCAAUACAACCUACUACCACA	0.0775
GGAGAGGAUACUAUACAUGCUACUACCUCA	0.0905

## Task Form field - read-out: pre-steady-state target cleavage rate; system: MILI (PIWIL2) piRISC loaded with piRNA #1 (26 nt); submitted item: GGAGACCUAACUAUCAACCUACUACCUCA;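 further: 1 nM active piRISC with 0.1 nM target library at 33 °C single turnover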
## Result 0.0603

## Task Form field - read-out: pre-steady-state target cleavage rate; system: MILI (PIWIL2) piRISC loaded with piRNA #1 (26 nt); submitted item: GGAGACCAUAUUAUACAACCUACUACCUCA;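 further: 1 nM active piRISC with 0.1 nM target library at 33 °C single turnover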
## Result 0.188

## Task Form field - read-out: pre-steady-state target cleavage rate; system: MILI (PIWIL2) piRISC loaded with piRNA #1 (26 nt); submitted item: GGAGUGGAUACUAUGCAACCUACUACCUCA;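 further: 1 nM active piRISC with 0.1 nM target library at 33 °C single turnover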
## Result 0.192

====

tested on: EfPiwi piRISC loaded with piRNA #1 (26 nt); test: pre-steady-state target cleavage rate (min^-1); auxiliary factor: 500 nM Ephydatia muelleri Gtsf1; guide: piRNA #1 5'p-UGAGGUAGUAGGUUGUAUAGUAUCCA; MIWI and MILI are mouse PIWI proteins and EfPiwi is from a freshwater sponge; tags in brackets are library labels; higher = faster piRNA-guided slicing of the target
param class (str): category from pre-steady-state target cleavage rate; see ranges low (below 0.004), mid (0.004 to below 0.006), high (0.006 or more)

Some solved cases for reference:
SEQUENCE_RECORD	LABEL_VALUE
GGAGACCUAUGAAUACAACCUACUACCUCG [g2:g18:cont:t1G]	mid
GGAGACGAUACUAUACAACCUACUCCCUCA	low
GGAGACCUAUCUAUACAACCUAUUACCUCA	mid
GGAGUCGAUACUAUACAACCUUCUACCUCA	high
GGAGACCUUACCAUACAACCUACUACCUCA	high
GGAGUGGAUACUAUACAACGAUCUACCUCA	low
GGAGACGAUACUAUACUACCUACUACCUGA	mid
GGAGACGAAACUUUACAACCUACUACCUCA	high
GGAGACCAUACUAUACAACCUACUUACCUCA	high
GGAGUGGAUAGAAUACAACCUACUACCUCA	high

## Task Which of the defined bands does the recorded pre-steady-state target cleavage rate of GGAGACCUAUCAUAUACAACCUACUACCUCA sit within?
## Result high

## Task Which of the defined bands does the recorded pre-steady-state target cleavage rate of GGAGUGGAUAUAUACAACCUACUACCUCA sit within?
## Result high

## Task Which of the defined bands does the recorded pre-steady-state target cleavage rate of GGAGACCAUACUAUACAACCUUACUACCUCA sit within?
## Result mid

## Task Which of the defined bands does the recorded pre-steady-state target cleavage rate of GGAGACCAUACUAUACAACCACUACCUCA sit within?
## Result mid

## Task Which of the defined bands does the recorded pre-steady-state target cleavage rate of GGAGACGAUACUAUACAACCUACUACGAGA sit within?
## Result mid

## Task Which of the defined bands does the recorded pre-steady-state target cleavage rate of GGAGACCUUACUAUACAACCUACUACGUGA sit within?
## Result mid

## Task Which of the defined bands does the recorded pre-steady-state target cleavage rate of GGAGACCUAUGAAUACAACCUACUACCUUA sit within?
## Result mid

## Task Which of the defined bands does the recorded pre-steady-state target cleavage rate of GGAGAGGAUACUAUACAACUCUACUACCUCA sit within?
## Result mid

## Task Which of the defined bands does the recorded pre-steady-state target cleavage rate of GGAGACCAUACUAUACAUCCUACAACCUCA sit within?
## Result low
